molecular target: JAK2 (Homo sapiens, UniProt O60674); construct: endogenous in cells; test: Kinobeads assay, JAK2; settings: mixed Molt4/Ramos lysate, read-out: Inhibition values (IC50) JAK2
Sequence (O60674 whole entry): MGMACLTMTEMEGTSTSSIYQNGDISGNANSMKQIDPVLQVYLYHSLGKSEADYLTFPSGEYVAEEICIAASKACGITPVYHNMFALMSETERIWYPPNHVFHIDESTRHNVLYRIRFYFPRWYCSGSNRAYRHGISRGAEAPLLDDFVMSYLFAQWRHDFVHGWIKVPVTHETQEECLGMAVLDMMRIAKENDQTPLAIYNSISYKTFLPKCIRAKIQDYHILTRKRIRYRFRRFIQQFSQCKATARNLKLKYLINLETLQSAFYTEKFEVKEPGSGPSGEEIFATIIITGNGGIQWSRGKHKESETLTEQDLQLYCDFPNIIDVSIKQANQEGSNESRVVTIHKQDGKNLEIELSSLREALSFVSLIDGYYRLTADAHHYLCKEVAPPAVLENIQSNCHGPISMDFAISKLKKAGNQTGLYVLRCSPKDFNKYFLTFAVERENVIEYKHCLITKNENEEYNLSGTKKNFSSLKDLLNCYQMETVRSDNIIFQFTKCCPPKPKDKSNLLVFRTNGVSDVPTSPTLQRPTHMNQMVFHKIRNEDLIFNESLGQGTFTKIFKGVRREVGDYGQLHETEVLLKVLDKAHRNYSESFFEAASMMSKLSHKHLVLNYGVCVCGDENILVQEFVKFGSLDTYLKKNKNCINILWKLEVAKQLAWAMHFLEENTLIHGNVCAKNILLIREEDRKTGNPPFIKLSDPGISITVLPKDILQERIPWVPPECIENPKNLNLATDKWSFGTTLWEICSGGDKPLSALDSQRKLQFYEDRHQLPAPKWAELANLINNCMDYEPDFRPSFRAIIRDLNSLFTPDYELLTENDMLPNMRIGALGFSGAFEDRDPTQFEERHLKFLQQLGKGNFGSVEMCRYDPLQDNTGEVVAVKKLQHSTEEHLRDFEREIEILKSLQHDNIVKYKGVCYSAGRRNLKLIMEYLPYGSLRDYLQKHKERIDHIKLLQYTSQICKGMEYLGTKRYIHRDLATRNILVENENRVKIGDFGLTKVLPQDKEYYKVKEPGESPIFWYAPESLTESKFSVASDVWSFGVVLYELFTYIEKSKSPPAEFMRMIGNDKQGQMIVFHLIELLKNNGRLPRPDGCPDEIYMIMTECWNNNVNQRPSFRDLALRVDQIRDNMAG
pIC50: −log10 of the molar value.
pIC50 values by entry
measure: pIC50

compound=CCn1cc(Nc2ncc(Cl)c(N[C@H](CO)c3cccnc3)n2)cn1 result="5.00 to 6.00"
compound=OC[C@@H](Nc1nc(Nc2cnn(CC(F)F)c2)ncc1Cl)c1ccccc1F result="5.00 to 6.00"
compound=Cc1cnc(Nc2cnn(C)c2)nc1N[C@H](CO)c1cc(F)ccc1F result="6.00 to 7.00"
compound=Cn1cc(-c2cc(F)cc([C@@H](CO)Nc3nc(Nc4cnn(CCO)c4)ncc3F)c2)cn1 result="≤ 5.00"
compound=Cn1cc(Nc2ncc(Cl)c(N[C@H](C(=O)NCCO)c3ccccc3)n2)cn1 result="5.00 to 6.00"
compound=Cn1cc(Nc2ncc(Cl)c(N[C@H](CO)c3cccc(N4CCOCC4=O)c3F)n2)cn1 result="≤ 5.00"
compound="CNC(=O)Cn1cc(Nc2ncc(Cl)c(NC(CO)c3cc(F)ccc3F)n2)cn1 (centres unmarked)" result="6.00 to 7.00"
compound=CN(C)C(=O)[C@@H](Nc1nc(Nc2cnn(CCO)c2)ncc1Cl)c1ccccc1 result="5.00 to 6.00"
